Numbers sourced from patent US11547681B2.

Assay: in vitro
Conditions: male, Sprague-Dawley, rat, s9, Half-life
Procedure: The reaction mixture, minus cofactors, was prepared as described below. The test article was added into the reaction mixture at a final concentration of 1 μM. […] Half-lives were calculated using GraphPad software, fitting to single-phase exponential decay equation. Reaction mixture, minus cofactors, was prepared as described below. […] Halflives were calculated using GraphPad software, fitting to a single-phase exponential decay equation. […]
endpoint.name: half-life at 1 μM (min)
Report the figure in min without appending any unit label.

Can you look up the measured half-life at 1 μM of CCCCCCCCCCCCCCCC(=O)NCCOC(=O)CCC(=O)OC(CO)CO [Compound I-8] for me?
14

Can you look up the measured half-life at 1 μM of CCCCCCCCCCCCCCCC(=O)NCCOC(=O)CCC(=O)OCC(O)CO (stereo not shown) [Compound I-9] for me?
55

###

Consider the following molecules; for each one, report its Concentration (μM) of analyte PEA, 30 min.
Experiment: in vitro
Settings: male, CD-1, mouse, 30 min, 1 μM
Report the figure in µM without appending any unit label.

Can you look up the measured Concentration (μM) of analyte PEA, 30 min of CCCCCCCCCCCCCCCC(=O)NCCOC(=O)CCC(=O)OCC(COC(=O)CCC)OC(=O)CCC (stereo not drawn) [Compound I-11] for me?
0.12

Can you look up the measured Concentration (μM) of analyte PEA, 30 min of CCCCCCCCCCCCCCCC(=O)NCCOC(=O)CCC(=O)OC[C@H]1O[C@@](CO)(O[C@H]2O[C@H](CO)[C@@H](O)[C@H](O)[C@H]2O)[C@@H](O)[C@@H]1O [Compound I-7] for me?
0.39

Can you look up the measured Concentration (μM) of analyte PEA, 30 min of CCCCCCCCCCCCCCCC(=O)NCCOC(=O)CCC(=O)OCC(COC(=O)CCCCCCC)OC(=O)CCCCCCC (stereo not drawn) [Compound I-3, PEA-Succinate-Glycerol-Di-Caprylic] for me?
0.026

###

Assay: Simulated intestinal fluid (SIF) stability in the presence of various enzymes
Type: in vitro ADME
Settings: simulated intestinal fluid with elastase, pH 6.8, SIF + Elastase, 1 μM, outside the sampled time range; read-out: Half-life, calculated (in parentheses)
endpoint.name: half-life at 1 μM (h)
Report the figure in h without appending any unit label.

Can you look up the measured half-life at 1 μM of CCCCC/C=C\C/C=C\CCCCCCCC(=O)OCCNC(=O)CCCCCCCCCCCCCCC [Compound I-6] for me?
3.08

###

Consider the following compounds; for each one, report its % Remaining of Initial, 20 min.
Assay: in vitro
Conditions: male, Sprague-Dawley, rat, microsomes, 20 min, 1 μM
Report the figure in % without appending any unit label.

Can you look up the measured % Remaining of Initial, 20 min of CCCCCCCCCCCCCCCC(=O)NCCOC(=O)CCC(=O)OCC(COC(=O)CCCCCCC)OC(=O)CCCCCCC (stereo not drawn) [Compound I-3, PEA-Succinate-Glycerol-Di-Caprylic] for me?
88

Can you look up the measured % Remaining of Initial, 20 min of CC/C=C\C/C=C\C/C=C\C/C=C\C/C=C\CCCC(=O)OCCNC(=O)CCCCCCCCCCCCCCC for me?
70

###

Assay: Liver microsomal stability, dog
Details: male, Beagle, microsomes, Half-life, Control Compound, Dog liver microsomes
endpoint.name: half-life (min)
Report the figure in min without appending any unit label.

Can you look up the measured half-life of C[C@]12CC[C@H]3[C@@H](CCC4=CC(=O)CC[C@@]43C)[C@@H]1CC[C@@H]2O [Testosterone, testosterone, reference compound] for me?
33

###

Assay: in vitro
Conditions: male, Beagle, dog, microsomes, 10 min, 1 μM
Lab note: compare % Remaining of Initial, 10 min with 90%, writing true if less and false if equal or more.

Lab note: confirm whether the reported % Remaining of Initial, 10 min for this molecule is below 90%, equality not counting. molecule: CCCCC/C=C\C/C=C\CCCCCCCC(=O)OCCNC(=O)CCCCCCCCCCCCCCC
false

Lab note: confirm whether the reported % Remaining of Initial, 10 min for this molecule is below 90%, equality not counting. molecule: CCCCCCCCCCCCCCCC(=O)NCCOC(=O)CCC(=O)OCC(COC(=O)CCC)OC(=O)CCC (stereo not shown)
true

Lab note: confirm whether the reported % Remaining of Initial, 10 min for this molecule is below 90%, equality not counting. molecule: CCCCCCCCCCCCCCCC(=O)NCCOC(=O)CCC(=O)OC[C@H]1O[C@@](CO)(O[C@H]2O[C@H](CO)[C@@H](O)[C@H](O)[C@H]2O)[C@@H](O)[C@@H]1O
true

Lab note: confirm whether the reported % Remaining of Initial, 10 min for this molecule is below 90%, equality not counting. molecule: CCCCCCCCCCCCCCCC(=O)NCCOC(=O)CCC(=O)OCC(O)CO (stereo not shown)
true

Lab note: confirm whether the reported % Remaining of Initial, 10 min for this molecule is below 90%, equality not counting. molecule: CCCCCCCCCCCCCCCC(=O)NCCOC(=O)CCC
true

Lab note: confirm whether the reported % Remaining of Initial, 10 min for this molecule is below 90%, equality not counting. molecule: CC/C=C\C/C=C\C/C=C\C/C=C\C/C=C\CCCC(=O)OCCNC(=O)CCCCCCCCCCCCCCC
true

Lab note: confirm whether the reported % Remaining of Initial, 10 min for this molecule is below 90%, equality not counting. molecule: CCCCCCCCCCCCCCCC(=O)NCCOC(=O)CCC(=O)OCC(COC(=O)CCCCCCC)OC(=O)CCCCCCC (stereo not shown) [Compound I-3, PEA-Succinate-Glycerol-Di-Caprylic]
false

###

Experiment: in vitro
Conditions: both, human, 30 min, 1 μM
Lab note: compare Measured concentration of analyte PEA, 30 min with 0.1 µM, writing met if less and not met if equal or more.

Lab note: confirm whether the reported Measured concentration of analyte PEA, 30 min for this compound is below 0.1 µM, equality not counting. compound: CCCCC/C=C\C/C=C\CCCCCCCC(=O)OCCNC(=O)CCCCCCCCCCCCCCC
met

Lab note: confirm whether the reported Measured concentration of analyte PEA, 30 min for this compound is below 0.1 µM, equality not counting. compound: CCCCCCCCCCCCCCCC(=O)NCCOC(=O)CCC(=O)OC[C@H]1O[C@@](CO)(O[C@H]2O[C@H](CO)[C@@H](O)[C@H](O)[C@H]2O)[C@@H](O)[C@@H]1O
not met

Lab note: confirm whether the reported Measured concentration of analyte PEA, 30 min for this compound is below 0.1 µM, equality not counting. compound: CCCCCCCCCCCCCCCC(=O)NCCOC(=O)CCC(=O)OCC(O)CO (stereo not shown)
not met

Lab note: confirm whether the reported Measured concentration of analyte PEA, 30 min for this compound is below 0.1 µM, equality not counting. compound: CCCCCCCCCCCCCCCC(=O)NCCOC(=O)CCC
not met

Lab note: confirm whether the reported Measured concentration of analyte PEA, 30 min for this compound is below 0.1 µM, equality not counting. compound: CC/C=C\C/C=C\C/C=C\C/C=C\C/C=C\CCCC(=O)OCCNC(=O)CCCCCCCCCCCCCCC
met

Lab note: confirm whether the reported Measured concentration of analyte PEA, 30 min for this compound is below 0.1 µM, equality not counting. compound: CCCCCCCCCCCCCCCC(=O)NCCOC(=O)CCC(=O)OCC(COC(=O)CCCCCCC)OC(=O)CCCCCCC (stereo not shown) [Compound I-3, PEA-Succinate-Glycerol-Di-Caprylic]
met

Lab note: confirm whether the reported Measured concentration of analyte PEA, 30 min for this compound is below 0.1 µM, equality not counting. compound: CCCCCCCCCCCCCCCC(=O)NCCOC(=O)CCC(=O)OCC(COC(=O)CCC)OC(=O)CCC (stereo not shown)
not met

###

Consider the following molecules; for each one, report its microsomal CLint at 1 μM.
Test: in vitro
Details: male, CD-1, mouse, s9, CLint

Can you look up the measured microsomal CLint at 1 μM of CCCCCCCCCCCCCCCC(=O)NCCOC(=O)CCC(=O)OC(COC(=O)CCC)COC(=O)CCC for me?
> 69.3 µL/min/mg

Can you look up the measured microsomal CLint at 1 μM of CCCCCCCCCCCCCCCC(=O)NCCOC(=O)CCC(=O)OC(CO)CO for me?
38.9 µL/min/mg

Can you look up the measured microsomal CLint at 1 μM of CCCCC/C=C\C/C=C\CCCCCCCC(=O)OCC(COC(=O)CCC(=O)OCCNC(=O)CCCCCCCCCCCCCCC)OC(=O)CCCCCCC/C=C\C/C=C\CCCCC (stereo not drawn) for me?
< 11.6 µL/min/mg

###

Assay: in vitro
Settings: male, Beagle, dog, 30 min, 1 μM
Consider the following molecules; for each one, report its Concentration (μM) of analyte PEA, 30 min.
Report the figure in µM without appending any unit label.

Can you look up the measured Concentration (μM) of analyte PEA, 30 min of CCCCCCCCCCCCCCCC(=O)NCCOC(=O)CCC(=O)OCC(COC(=O)CCC)OC(=O)CCC (stereo not drawn) for me?
0.29

Can you look up the measured Concentration (μM) of analyte PEA, 30 min of CCCCC/C=C\C/C=C\CCCCCCCC(=O)OCCNC(=O)CCCCCCCCCCCCCCC for me?
0.049

Can you look up the measured Concentration (μM) of analyte PEA, 30 min of CCCCCCCCCCCCCCCC(=O)NCCOC(=O)CCC(=O)OC[C@H]1O[C@@](CO)(O[C@H]2O[C@H](CO)[C@@H](O)[C@H](O)[C@H]2O)[C@@H](O)[C@@H]1O for me?
0.12
